Origin of values: patent US20190106487A1

EC50 overview
# targetOrTestSystem: T1, rhIL-1RAcP/Fc Chimera (human, UniProt Q9NPH3 21-359)
# T1 construct: also called P013_03; P013-03
# T1 sequence (looked up): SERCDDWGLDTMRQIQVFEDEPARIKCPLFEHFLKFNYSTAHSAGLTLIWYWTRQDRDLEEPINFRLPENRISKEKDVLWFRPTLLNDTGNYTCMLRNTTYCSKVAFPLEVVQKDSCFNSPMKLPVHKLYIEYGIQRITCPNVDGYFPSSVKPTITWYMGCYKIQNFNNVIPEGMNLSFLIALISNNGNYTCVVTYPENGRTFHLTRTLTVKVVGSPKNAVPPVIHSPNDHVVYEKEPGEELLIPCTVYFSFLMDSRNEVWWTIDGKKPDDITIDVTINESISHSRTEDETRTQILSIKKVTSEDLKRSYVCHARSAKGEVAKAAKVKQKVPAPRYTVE
# test: ELISA, recombinant purified mAb
Give your result in µg/mL as a bare value.

binder="P013.S.01.B.C06 (antibody, V domains shown, rabbit monoclonal antibody; also called P013.A.00014.D06) VH: QSVEESGGRLVTPGGSLTLTCTVSGFSLSIYAMGWFRQAPGKGLEWIGDIYAGSGSTWYASWAKGRFTISKTSTTVDLKITSPTTEDTATYFCAREIDAGYVGYGFNLWGQGTLVTVSS VL: AQALTQTPSSVSAAVGGTVTINCQSSQSVYSDYLAWYQQKPGQPPKLLIYQASKLATGVPSRFKGSGSGTQFTLTISGVQSDDAATYYCQATYYGSGWYRAFGGGTELVVK" observedresult=0.07
binder="P013.S.01.B.F03 (antibody, V domains shown, rabbit monoclonal antibody; also called P013.A.00025.F02) VH: LEQSGGGAEGGLVKPGGSLELCCKASGFSLGSSYWICWVRQAPGKGLEWIGCIYAGSSGITYYASWVSGRFTLSRDIDQSTGCLQLNSLTAADTAMYYCARDIYASTSGYDLWGQGTLVTVSS VL: ALVMTQTPSPVSAAVGGTVTINCQASEDIYSNLAWFQQKPGQPPKLLIYQASTLASGVPSRFSGSGSGTEFTLTISGLQSDDAAAYYCLGVCTYIGADNTLYNTFGGGTEVVVK" observedresult=0.44

Now for a further binder.
Recall and state the measured EC50 for P013.S.01.B.F05 (antibody, V domains shown, rabbit monoclonal antibody; also called P013.A.00087.C06) VH: QSLEESGGRLVTPGGSLTLTCTVSGIDLSNYAMSWVRQAPGKGLEWIGSVISGGSTYYATWAKGRFTISKTSTTVDLKMTSLTTEDTATYFCARGCPGYNGDKYALDLWGPGTVVTVSS VL: AFEMTQTPSSVSEPVGGTVTIKCQASQSIHNYLSWYQQKPGQRPKLLIYRASTLASGVPSRFKGSGSGTEFTLTISGVESADAATYYCQQGATSYDIDNAFGGGTEVVVK .
0.052
